- METHOD SUMMARY: log P determination by HPLC on reversed-phase column (EEC Directive 79/831 Annex V.A8)
- Assay type: physicochemical
- EXPERIMENTAL CONTEXT: reversed-phase HPLC column (C 18); pH 2.3; HPLC reversed-phase C 18, 43° C.; 0.1% aqueous phosphoric acid/acetonitrile
QUANTITY MEASURED: chromatographic logP

CCn1cc(C(=O)Nc2ccc(F)cc2-c2ccc(Cl)c(Cl)c2)c(C(F)F)n1    3.61
CCn1cc(C(=O)Nc2ccc(F)cc2-c2ccc(Cl)c(F)c2)c(C(F)F)n1    3.34
Cn1nc(C(C)(C)C)c(C(=O)Nc2ccc(F)cc2-c2ccc(Cl)c(Cl)c2)c1Cl    4.53

Where do the numbers come from? From patent US20090069398A1.
